Entries and their measured percent inhibition of viability follow.
# Test system: NKL (IL-2 2.5 ng/mL)
# EXPERIMENTAL_PROTOCOL: percent inhibition of viability; higher = more inhibition
# ASSAY_CONDITIONS: 72 h; 1000 nM
MEASUREMENT_TYPE: percent inhibition of viability (%)

1. C[C@@H]1CN(Cc2ccc(F)cc2)[C@@H](C)CN1C(=O)c1cc2c(C(=O)C(=O)N(C)C)cn(C)c2cc1Cl [Talmapimod] (max concentration tested 10000 nM) : 9.7
2. Cc1cn(-c2cc(NC(=O)c3ccc(C)c(Nc4nccc(-c5cccnc5)n4)c3)cc(C(F)(F)F)c2)cn1 [Nilotinib] (max concentration tested 10000 nM) : 29.9
3. CC(C)n1nc(-c2ccc3oc(N)nc3c2)c2c(N)ncnc21 [INK128] (max concentration tested 1000 nM) : 70.2
4. O=C(NC1CCNCC1)c1n[nH]cc1NC(=O)c1c(Cl)cccc1Cl [AT7519] (max concentration tested 10000 nM) : 102
5. CO[C@@]12[C@H](COC(N)=O)C3=C(C(=O)C(C)=C(N)C3=O)N1C[C@@H]1N[C@@H]12 [Mitomycin C] (max concentration tested 10000 nM) : 99.1
6. O=NN(CCCl)C(=O)NC1CCCCC1 [Lomustine] (max concentration tested 10000 nM) : -23.3
7. O=C1c2c(O)ccc(O)c2C(=O)c2c(NCCNCCO)ccc(NCCNCCO)c21 [Mitoxantrone] (max concentration tested 1000 nM) : 107
8. Cn1nnc2c(C(N)=O)ncn2c1=O [Temozolomide] (max concentration tested 100000 nM) : -10.2
9. COc1ccc(COc2cc3oc(=O)c4cc(C(C)O)ccc4c3cc2OC)cc1 (stereo not drawn) [Palomid-529] (max concentration tested 10000 nM) : 30.5
10. C/C(=C\c1csc(C)n1)[C@@H]1C[C@@H]2O[C@]2(C)CCC[C@H](C)[C@H](O)[C@@H](C)C(=O)C(C)(C)[C@@H](O)CC(=O)O1 [Patupilone] (max concentration tested 1000 nM) : 90.3
11. C1=N/C2=N/c3ccc(OCCN4CCCC4)c(c3)COC/C=C/COCc3cccc(c3)C(=C1)N2 [Pacritinib] (max concentration tested 10000 nM) : 65.3
12. CS(=O)(=O)c1ccc(C2=C(c3ccccc3)C(=O)OC2)cc1 [Rofecoxib] (max concentration tested 10000 nM) : 4.19
13. Cc1c(C(=O)Nc2ccc(N3C[C@@H](C)O[C@@H](C)C3)nc2)cccc1-c1ccc(OC(F)(F)F)cc1 [Sonidegib] (max concentration tested 10000 nM) : 6.28
14. Cc1c(NC(=O)OC[C@@H]2COCCN2)cn2ncnc(Nc3ccc4c(cnn4Cc4cccc(F)c4)c3)c12 (max concentration tested 10000 nM) : 0.45
15. CC[C@H](CO)Nc1nc(NCc2ccccc2)c2ncn(C(C)C)c2n1 [Seliciclib] (max concentration tested 10000 nM) : 10.3
16. NC(=O)c1cccc2cn(-c3ccc([C@@H]4CCCNC4)cc3)nc12 [Niraparib] (max concentration tested 10000 nM) : 72.4
17. Cc1ccc(NC(=O)c2ccc(CN3CCN(C)CC3)cc2)cc1Nc1nccc(-c2cccnc2)n1 [Imatinib] (max concentration tested 10000 nM) : -6.32
18. CC(C)(C)Cn1c(N)nc2ccc(-c3[nH]c(C(C)(C)C)nc3-c3ccc(F)cc3)nc21 [Ralimetinib] (max concentration tested 10000 nM) : 17.1
19. C[C@@H]1COC(Nc2ccc3ncnc(Nc4ccc(OCc5nccs5)c(Cl)c4)c3c2)=N1 [Varlitinib] (max concentration tested 10000 nM) : 12.6
20. COc1ccc(-c2nc(N3CCOCC3)c3sc(CN(C)c4ncc(C(=O)NO)cn4)cc3n2)cn1 [CUDC-907] (max concentration tested 10000 nM) : 104
21. COc1ccc(-c2ccc3ncc4c(c3c2)n(-c2ccc(N3CCNCC3)c(C(F)(F)F)c2)c(=O)n4C)cn1 [NVP-BGT226] (max concentration tested 1000 nM) : 93.4
22. CO[C@H]1/C=C\C=C(/C)C(=O)NC2=CC(=O)C(NCCN(C)C)=C(C[C@@H](C)C[C@H](OC)[C@H](O)[C@@H](C)/C=C(\C)[C@@H]1OC(N)=O)C2=O [Alvespimycin] (max concentration tested 1000 nM) : 90.7
23. C[C@@H](Oc1ccc2[nH]nc(/C=C/c3cnn(CCO)c3)c2c1)c1c(Cl)cncc1Cl (max concentration tested 1000 nM) : 84.6

###

Entries and their measured drug sensitivity score follow.
# Test system: NKL (IL-2 2.5 ng/mL)
# EXPERIMENTAL_PROTOCOL: drug sensitivity score (DSS) (DSS units); higher = more sensitive; extreme values may be limits of the assay
# ASSAY_CONDITIONS: 72 h
MEASUREMENT_TYPE: drug sensitivity score

1. COc1cc2ncnc(Nc3ccc(F)c(Cl)c3)c2cc1NC(=O)/C=C/CN1CCCCC1 [Dacomitinib] (max concentration tested 1000 nM) : 8.95
2. CCNC(=O)Nc1ccc(-c2nc3c(c(N4CCOC[C@@H]4C)n2)CCN(C2COC2)C3)cc1 [RG-7603] (max concentration tested 2500 nM) : 7.13
3. S=C(NCc1ccc2c(c1)OCO2)N1CCN(c2ncnc3c2oc2ccccc23)CC1 [Amuvatinib] (max concentration tested 10000 nM) : 11.7
4. COc1ccc(COc2cc3oc(=O)c4cc(C(C)O)ccc4c3cc2OC)cc1 (configuration not stated) [Palomid-529] (max concentration tested 10000 nM) : 5.94
5. CN(C[C@@H]1COCCO1)S(=O)(=O)Nc1ccc2ccc3ncc(-c4cnn(C)c4)cc3c(=O)c2c1 [MK-2461] (max concentration tested 10000 nM) : 2.56
6. C[C@@H](Oc1cc(-c2cnn(C3CCNCC3)c2)cnc1N)c1c(Cl)ccc(F)c1Cl [Crizotinib] (max concentration tested 1000 nM) : 3.75
7. O=C(NOC[C@H](O)CO)c1ccc(F)c(F)c1Nc1ccc(I)cc1F (max concentration tested 1000 nM) : 11.1

###

# Test system: normal primary NK cells, pool 1 (3 donors), resting (IL-2 0 ng/mL)
# EXPERIMENTAL_PROTOCOL: drug sensitivity score (DSS) (DSS units); higher = more sensitive; extreme values may be limits of the assay
# ASSAY_CONDITIONS: 72 h
Decide using drug sensitivity score: a value greater than or equal to 0.2 is Condition met, a smaller one is Condition not met.

1. COc1cc2ncnc(Nc3ccc(F)c(Cl)c3)c2cc1NC(=O)/C=C/CN1CCCCC1 [Dacomitinib] (max concentration tested 1000 nM) : Condition met
2. CO[C@@]12[C@H](COC(N)=O)C3=C(C(=O)C(C)=C(N)C3=O)N1C[C@@H]1N[C@@H]12 [Mitomycin C] (max concentration tested 10000 nM) : Condition met
3. CCc1cc(Nc2nccc(-c3c(-c4ccc(OC)c(C(=O)Nc5c(F)cccc5F)c4)nc4ccccn34)n2)c(OC)cc1N1CCC(N2CCN(S(C)(=O)=O)CC2)CC1 (max concentration tested 10000 nM) : Condition not met
4. C[C@@H]1CN(Cc2ccc(F)cc2)[C@@H](C)CN1C(=O)c1cc2c(C(=O)C(=O)N(C)C)cn(C)c2cc1Cl [Talmapimod] (max concentration tested 10000 nM) : Condition met
5. O=C(c1cc(Cc2n[nH]c(=O)c3ccccc23)ccc1F)N1CCN(C(=O)C2CC2)CC1 [Olaparib] (max concentration tested 10000 nM) : Condition met
6. Cc1nc(Nc2n[nH]c3c2CN(C(=O)N[C@H](CN(C)C)c2ccccc2)C3(C)C)c2sccc2n1 (max concentration tested 10000 nM) : Condition met

###

# System: normal primary NK cells, pool 2 (3 donors) (IL-2 2.5 ng/mL)
# EXPERIMENTAL_PROTOCOL: percent inhibition of viability; higher = more inhibition
# ASSAY_CONDITIONS: 72 h; 100 nM
Entries and their measured percent inhibition of viability follow.
MEASUREMENT_TYPE: percent inhibition of viability (%)

1) COc1ccc(COc2cc3oc(=O)c4cc(C(C)O)ccc4c3cc2OC)cc1 (stereo not drawn) [Palomid-529] (max concentration tested 10000 nM) : -8.91
2) Cn1cc(CNCC2CCN(c3ncc(C(=O)NO)cn3)CC2)c2ccccc21 [Quisinostat] (max concentration tested 1000 nM) : 93.8
3) O=C(Nc1c[nH]nc1-c1nc2ccc(CN3CCOCC3)cc2[nH]1)NC1CC1 [AT9283] (max concentration tested 1000 nM) : 0.3
4) N[C@@H]1CCCN(c2c(/C=C3\SC(=O)NC3=O)cccc2-c2ccccc2)C1 [AZD1208] (max concentration tested 10000 nM) : 8.9
5) C#Cc1cccc(Nc2ncnc3cc(OCCOC)c(OCCOC)cc23)c1 [Erlotinib] (max concentration tested 10000 nM) : 13.4
6) COc1cc2c(N3CCN(C(=O)Nc4ccc(OC(C)C)cc4)CC3)ncnc2cc1OCCCN1CCCCC1 [Tandutinib] (max concentration tested 1000 nM) : -2.34
7) Cc1nc(Nc2n[nH]c3c2CN(C(=O)N[C@H](CN(C)C)c2ccccc2)C3(C)C)c2sccc2n1 (max concentration tested 10000 nM) : 27.4
8) O=C1CCC(N2C(=O)c3ccccc3C2=O)C(=O)N1 (stereo not drawn) [Thalidomide] (max concentration tested 10000 nM) : 0.16
9) Cn1cncc1[C@@](N)(c1ccc(Cl)cc1)c1ccc2c(c1)c(-c1cccc(Cl)c1)cc(=O)n2C [Tipifarnib] (max concentration tested 10000 nM) : 13.5
10) COc1cc(N2CCN(C)CC2)ccc1Nc1nccc(-c2cn(C)c3cnccc23)n1 [AZ191] (max concentration tested 10000 nM) : -2.76
11) Cc1ccc(C(=O)N(CCCN)[C@@H](c2oc3cc(Cl)ccc3c(=O)c2Cc2ccccc2)C(C)C)cc1 (max concentration tested 100 nM) : 9.78
12) CNCc1ccc(-c2[nH]c3cc(F)cc4c3c2CCNC4=O)cc1 [Rucaparib] (max concentration tested 10000 nM) : -1.77
13) COc1ccc(-c2ccc3ncc4c(c3c2)n(-c2ccc(N3CCNCC3)c(C(F)(F)F)c2)c(=O)n4C)cn1 [NVP-BGT226] (max concentration tested 1000 nM) : 39
